Target: P110 β isoform (Homo sapiens, UniProt P42338)
Construct: The α and β isoforms of the PI3K were immunoprecipitated from a platelet lysate
Assay: Isoform selective in vitro PI3K enzyme assay (Example 13), β
metric.name: IC50 (nM)
Report only the number, with the unit nM understood.

Sample Cc1cc(C(C)Nc2ccccc2)c2oc(-c3ccncc3)cc(=O)c2c1 (stereo not shown) ; IC50 observed: 2

---

Target: P110 γ (Homo sapiens, UniProt P48736)
Sequence (P48736 whole entry, species assumed, canonical isoform): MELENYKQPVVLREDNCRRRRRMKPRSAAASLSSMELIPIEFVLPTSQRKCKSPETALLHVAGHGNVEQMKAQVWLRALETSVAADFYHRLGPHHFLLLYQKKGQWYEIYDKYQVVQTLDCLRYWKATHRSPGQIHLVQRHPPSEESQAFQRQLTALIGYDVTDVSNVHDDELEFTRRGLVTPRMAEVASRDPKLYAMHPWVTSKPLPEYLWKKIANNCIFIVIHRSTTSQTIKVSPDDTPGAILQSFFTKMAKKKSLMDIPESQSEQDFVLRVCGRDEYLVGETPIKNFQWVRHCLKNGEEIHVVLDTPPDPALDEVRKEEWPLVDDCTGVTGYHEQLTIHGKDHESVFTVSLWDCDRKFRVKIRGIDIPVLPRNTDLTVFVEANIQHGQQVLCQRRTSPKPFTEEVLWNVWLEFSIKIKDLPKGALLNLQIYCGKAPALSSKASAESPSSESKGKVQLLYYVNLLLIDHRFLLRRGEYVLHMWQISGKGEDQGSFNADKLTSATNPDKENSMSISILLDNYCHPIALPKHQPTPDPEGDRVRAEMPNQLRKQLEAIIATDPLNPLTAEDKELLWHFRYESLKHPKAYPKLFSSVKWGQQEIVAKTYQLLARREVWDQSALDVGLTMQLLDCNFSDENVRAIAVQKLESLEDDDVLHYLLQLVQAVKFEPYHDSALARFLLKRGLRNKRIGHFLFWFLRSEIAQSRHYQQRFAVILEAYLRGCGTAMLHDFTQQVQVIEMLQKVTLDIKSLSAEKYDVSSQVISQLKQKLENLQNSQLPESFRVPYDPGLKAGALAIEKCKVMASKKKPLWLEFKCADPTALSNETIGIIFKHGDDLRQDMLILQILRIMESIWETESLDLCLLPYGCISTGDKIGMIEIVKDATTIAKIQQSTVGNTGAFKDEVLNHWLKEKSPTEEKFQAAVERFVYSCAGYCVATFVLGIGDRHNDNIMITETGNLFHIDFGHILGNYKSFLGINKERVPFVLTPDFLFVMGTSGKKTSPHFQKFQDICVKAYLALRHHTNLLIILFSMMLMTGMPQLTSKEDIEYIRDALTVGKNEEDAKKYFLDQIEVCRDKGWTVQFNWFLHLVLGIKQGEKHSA
Experiment: Isoform selective in vitro PI3K enzyme assay (Example 13), γ recombinant
Details: read-out: P110 γ IC50s
metric.name: IC50 (µM)

O=c1cc(-c2ccncc2)oc2c(NCc3ccccc3)cccc12
10
O=c1cc(-c2ccncc2)oc2c(Nc3ccccc3)cccc12
5

P. Cc1cc(C(C)Nc2ccc(F)cc2C)c2oc(-c3ccncc3)cc(=O)c2c1 (stereo not drawn)
Q. Cc1cc(CNc2ccccn2)c2oc(-c3ccncc3)cc(=O)c2c1
R. Cc1cc(C(C)Nc2cccc(C)n2)c2oc(-c3ccncc3)cc(=O)c2c1 (stereo not drawn)
S. O=c1cc(-c2ccncc2)[nH]c2c(Oc3ccccc3)cccc12
Problem: Hi! Can you put these in order of IC50, lowest number first? Answer format: list of labels, ordered as asked.
Solution: P, Q, R, S
(P: 1.5 µM, Q: 5 µM, R: 7.5 µM, S: 20 µM)

---

Target: p110β-PI3K (Homo sapiens, UniProt P42338)
Construct: The α and β isoforms of the PI3K were immunoprecipitated from a platelet lysate; from tissue; host or cells: washed platelets (lysate, immunoprecipitated with anti-p110β antibody)
Sequence (P42338 whole entry, canonical isoform): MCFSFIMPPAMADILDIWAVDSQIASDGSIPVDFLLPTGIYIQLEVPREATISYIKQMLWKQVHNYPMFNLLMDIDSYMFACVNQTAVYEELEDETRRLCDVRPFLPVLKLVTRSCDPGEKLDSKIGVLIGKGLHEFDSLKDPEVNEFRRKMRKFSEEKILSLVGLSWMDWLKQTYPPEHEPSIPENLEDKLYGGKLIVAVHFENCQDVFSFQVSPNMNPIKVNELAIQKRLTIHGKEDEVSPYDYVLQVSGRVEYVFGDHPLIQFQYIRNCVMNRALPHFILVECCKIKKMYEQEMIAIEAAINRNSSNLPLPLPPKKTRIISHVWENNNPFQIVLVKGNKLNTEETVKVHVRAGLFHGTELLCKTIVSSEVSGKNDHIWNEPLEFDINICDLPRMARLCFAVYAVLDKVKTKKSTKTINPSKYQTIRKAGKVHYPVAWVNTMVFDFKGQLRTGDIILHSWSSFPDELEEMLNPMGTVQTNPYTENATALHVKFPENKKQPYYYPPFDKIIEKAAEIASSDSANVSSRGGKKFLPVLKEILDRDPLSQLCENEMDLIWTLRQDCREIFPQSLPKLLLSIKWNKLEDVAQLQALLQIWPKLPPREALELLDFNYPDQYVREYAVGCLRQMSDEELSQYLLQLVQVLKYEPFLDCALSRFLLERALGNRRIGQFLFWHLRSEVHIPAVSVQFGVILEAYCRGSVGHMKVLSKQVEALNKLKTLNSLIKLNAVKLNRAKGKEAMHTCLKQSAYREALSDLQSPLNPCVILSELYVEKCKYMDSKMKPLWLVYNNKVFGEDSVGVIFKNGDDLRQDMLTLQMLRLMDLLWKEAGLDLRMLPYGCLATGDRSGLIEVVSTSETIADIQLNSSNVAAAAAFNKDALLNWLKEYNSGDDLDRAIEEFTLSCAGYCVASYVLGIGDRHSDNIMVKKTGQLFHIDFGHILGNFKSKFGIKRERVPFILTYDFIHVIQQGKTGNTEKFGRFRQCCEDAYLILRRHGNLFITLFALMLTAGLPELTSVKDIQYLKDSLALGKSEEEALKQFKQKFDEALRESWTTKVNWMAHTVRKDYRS
Sequence (P27986 whole entry partner, canonical isoform): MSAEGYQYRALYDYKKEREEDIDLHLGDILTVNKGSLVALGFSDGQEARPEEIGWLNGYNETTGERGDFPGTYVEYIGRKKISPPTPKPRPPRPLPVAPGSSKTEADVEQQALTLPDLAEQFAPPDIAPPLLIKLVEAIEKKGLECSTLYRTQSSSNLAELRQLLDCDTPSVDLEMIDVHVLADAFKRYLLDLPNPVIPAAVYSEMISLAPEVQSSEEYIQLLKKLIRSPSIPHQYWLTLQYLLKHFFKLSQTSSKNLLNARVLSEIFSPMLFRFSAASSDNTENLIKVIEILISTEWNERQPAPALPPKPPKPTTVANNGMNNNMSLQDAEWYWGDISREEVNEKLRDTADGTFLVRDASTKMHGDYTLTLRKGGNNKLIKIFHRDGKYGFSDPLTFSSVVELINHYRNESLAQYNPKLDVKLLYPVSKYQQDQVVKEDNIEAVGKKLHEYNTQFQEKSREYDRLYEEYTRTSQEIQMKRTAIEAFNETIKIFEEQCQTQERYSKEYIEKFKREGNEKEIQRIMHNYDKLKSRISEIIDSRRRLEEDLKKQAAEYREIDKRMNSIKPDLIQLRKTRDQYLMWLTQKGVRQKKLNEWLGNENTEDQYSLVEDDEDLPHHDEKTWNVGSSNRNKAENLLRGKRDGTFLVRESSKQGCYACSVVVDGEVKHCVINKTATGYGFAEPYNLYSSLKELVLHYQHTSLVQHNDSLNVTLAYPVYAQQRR
Experiment: In vitro enzyme assay, p110β immunoprecipitated from platelet lysate (Biological Example 1)
Format: biochemical
Details: Table I
metric.name: Ratio δ/β

Example molecules with recorded Ratio δ/β:
Cc1cc(C(C)Nc2cccc(Cl)c2)c2nc(N3CCOCC3)cc(=O)n2c1 (racemic) [TGX-248]
10.00
Cc1cc(C(C)Nc2ccccn2)c2nc(N3CCOCC3)cc(=O)n2c1 (racemic) [TGX-295]
40.00
Cc1cccc(NC(C)c2cc(C)cn3c(=O)cc(N4CCOCC4)nc23)c1 (racemic) [TGX-262]
20.00

A. Cc1cc(C(C)Nc2cccc(C(F)(F)F)c2)c2nc(N3CCOCC3)cc(=O)n2c1 (racemic) [TGX-264]
B. Cc1cc(C(C)Nc2cc(F)cc(F)c2)c2nc(N3CCOCC3)cc(=O)n2c1 (racemic) [TGX-239]
Problem: Just curious, which one has the larger Ratio δ/β reading, A or B ? Respond using the label that marks the chosen record.
Solution: A
(A: 133.33, B: 11.43)

---

Biological target: Ab1 (Homo sapiens, UniProt P00519)
Sequence (P00519 whole entry): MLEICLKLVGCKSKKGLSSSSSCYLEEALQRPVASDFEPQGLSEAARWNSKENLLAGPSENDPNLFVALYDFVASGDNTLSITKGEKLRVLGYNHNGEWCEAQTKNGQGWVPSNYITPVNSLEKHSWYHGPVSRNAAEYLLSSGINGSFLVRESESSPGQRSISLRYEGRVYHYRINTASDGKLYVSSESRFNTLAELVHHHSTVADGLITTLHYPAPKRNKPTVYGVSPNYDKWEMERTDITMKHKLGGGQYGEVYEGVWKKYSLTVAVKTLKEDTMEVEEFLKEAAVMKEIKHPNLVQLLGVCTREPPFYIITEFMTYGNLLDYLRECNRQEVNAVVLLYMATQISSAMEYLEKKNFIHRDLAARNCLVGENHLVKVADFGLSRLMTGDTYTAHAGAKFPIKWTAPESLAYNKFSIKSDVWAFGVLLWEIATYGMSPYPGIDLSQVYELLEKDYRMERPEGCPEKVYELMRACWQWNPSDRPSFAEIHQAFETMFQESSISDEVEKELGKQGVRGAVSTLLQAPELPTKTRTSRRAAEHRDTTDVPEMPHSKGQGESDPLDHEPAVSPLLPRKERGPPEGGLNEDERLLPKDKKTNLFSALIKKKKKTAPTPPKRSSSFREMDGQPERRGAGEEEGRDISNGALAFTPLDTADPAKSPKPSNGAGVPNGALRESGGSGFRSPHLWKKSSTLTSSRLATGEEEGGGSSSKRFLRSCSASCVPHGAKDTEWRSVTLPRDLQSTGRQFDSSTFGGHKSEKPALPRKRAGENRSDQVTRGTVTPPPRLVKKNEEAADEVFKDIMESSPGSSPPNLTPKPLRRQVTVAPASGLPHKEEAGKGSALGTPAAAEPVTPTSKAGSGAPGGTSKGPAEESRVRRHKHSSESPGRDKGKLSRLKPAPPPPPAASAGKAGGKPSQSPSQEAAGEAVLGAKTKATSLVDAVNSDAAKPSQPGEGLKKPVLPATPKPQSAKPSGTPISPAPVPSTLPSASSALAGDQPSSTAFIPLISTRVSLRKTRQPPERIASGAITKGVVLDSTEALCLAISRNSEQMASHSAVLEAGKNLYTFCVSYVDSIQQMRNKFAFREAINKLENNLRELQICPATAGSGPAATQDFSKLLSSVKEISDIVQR
Test: Tyrosine kinase assay by MDS Pharma Services (Panlabs)
Assay type: biochemical
metric.name: IC50

Sample Cc1cc(C(C)Nc2ccccc2)c2nc(N3CCOCC3)cc(=O)n2c1 (racemic) [TGX-221] ; IC50 observed: > 10 µM

---

Target: Insulin Receptor (Homo sapiens, UniProt P06213)
Experiment: Tyrosine kinase assay by MDS Pharma Services (Panlabs)
Type: biochemical
metric.name: IC50

Tested on Insulin Receptor (Homo sapiens, UniProt P06213), the item Cc1cc(C(C)Nc2ccccc2)c2nc(N3CCOCC3)cc(=O)n2c1 (racemic) [TGX-221] showed IC50 equal to > 10 µM

---

Target: p110α-PI3K (Homo sapiens, UniProt P42336)
Construct: The α and β isoforms of the PI3K were immunoprecipitated from a platelet lysate; from tissue; host or cells: washed platelets (lysate, immunoprecipitated with anti-p110α antibody)
Assay: In vitro enzyme assay, p110α immunoprecipitated from platelet lysate (Biological Example 1)
Format: biochemical
Settings: read-out: IC50 (μM), p110α-PI3K
metric.name: IC50 (µM)
Report only the number, with the unit µM understood.

Tested on p110α-PI3K (Homo sapiens, UniProt P42336), the item Cc1cc(C(C)Nc2ccccc2)c2nc(N3CCOCC3)cc(=O)n2c1 (racemic) [TGX-221] showed IC50 equal to 5
